What peptide exchange yield was measured for each of the following?
biological target: HLA-A*24 (human); experiment: UV-ligand exchange, anti-b2m ELISA

>>> result("AYVVFVSTL [peptide SEQ ID No 207 …]")
"20 to 49%"

Parameters: items (list). Returns: peptide exchange yield for each item.
1. LYITEPKTI [peptide SEQ ID No 287 …]
2. EYNQWFTKL [peptide SEQ ID No 176 …]
3. QYLQDAYSF [peptide SEQ ID No 272 …]
4. TYKDEGNDYF [peptide SEQ ID No 209 …]
5. YYVESGKLF [peptide SEQ ID No 166 …]
6. YYEVHKELF [peptide SEQ ID No 175 …]
7. YYGPSLFLL [peptide SEQ ID No 200 …]

1: 50 to 75%; 2: 50 to 75%; 3: > 75%; 4: 50 to 75%; 5: > 75%; 6: > 75%; 7: 50 to 75%

Parameters: items (list). Returns: peptide exchange yield for each item.
1. WYVNGVNYF [peptide SEQ ID No 189 …]
2. IYKVGAPTI [peptide SEQ ID No 185 …]
3. AYTLIAPNI [peptide SEQ ID No 169 …]
4. AYLHSHALI [peptide SEQ ID No 274 …]
5. VYVGGGQIIHL [peptide SEQ ID No 174 …]
6. LYIDRPLPYL [peptide SEQ ID No 196 …]

1. 20 to 49%
2. 50 to 75%
3. 50 to 75%
4. > 75%
5. 50 to 75%
6. 50 to 75%

# peptide exchange yield lookup, item HYPPVQVLF [peptide SEQ ID No 285 …]
50 to 75%
